- System: SF-539
- test-description: NCI tumour cell line growth inhibition, 48 h
Activity calls are given as the source filed them. Rule as the data show it: active = GI50 up to about 1.1 µM and inactive = higher.

{"compound": "O=C(Nc1ccccc1C(=O)O)C(=O)C(C(=O)c1ccccc1-c1ccccc1)C1OC(=O)c2ccccc21 (centres undefined)", "GI50": "16.6 µM (inactive)"}
{"compound": "C=C1CCc2ccccc2C1=O", "GI50": "> 100 µM (inactive)"}
{"compound": "COC(=O)C1=C(O)c2cc(OC)c(OC)c(OC)c2[C@H](c2cc(OC)c(OC)c(OC)c2)C1C(=O)OC (some centres undefined)", "GI50": "14.2 µM (inactive)"}
{"compound": "Cc1cc2c(cc1Cl)SC(NNC(=O)c1ccco1)=NS2(=O)=O", "GI50": "> 10 µM (inactive)"}
{"compound": "C=C1C(=O)OC2/C=C(\\C)C(O)CC(O)C(C)(O)CC(OC(=O)/C(C)=C/C)C12 (centres undefined)", "GI50": "42.4 µM (inactive)"}
{"compound": "COC(=O)C(=O)C(C(=O)C(=O)Nc1cc(C)ccc1C)c1nc2ccccc2nc1O (centres undefined)", "GI50": "> 100 µM (inactive)"}
{"compound": "CC1OC2=N[C@@H]1C(=O)N[C@@H](C(C)C)C1=N[C@H](C(=O)N[C@@H](C(C)C)C3=N[C@H](C(=O)N[C@@H](C(C)C)C4=N[C@H](C(=O)N[C@H]2C(C)C)C(C)O4)C(C)O3)C(C)O1 (some centres undefined)", "GI50": "> 10 µM (inactive)"}
{"compound": "COC(=O)CCC(NC(=S)N/N=C(\\C)c1cnccn1)C(=O)OC (centres undefined)", "GI50": "62.5 µM (inactive)"}
{"compound": "COC(=O)C1CC2CC(=NNC(N)=O)CC2C1 (centres undefined)", "GI50": "> 100 µM (inactive)"}
{"compound": "CC1(C)CC(=O)c2c(nc3c(ccc4ccccc43)c2-c2ccc(NC(=O)CCCCCCCCC(=O)Nc3ccc(-c4c5c(nc6c4ccc4ccccc46)CC(C)(C)CC5=O)cc3)cc2)C1", "GI50": "> 100 µM (inactive)"}
{"compound": "CCOC(=O)c1ccc(/N=c2/[nH]c3ccccc3s/c2=N/c2ccc(C(=O)OCC)cc2)cc1", "GI50": "72.8 µM (inactive)"}
{"compound": "OCCc1cnco1", "GI50": "> 100 µM (inactive)"}
{"compound": "Cc1ccc(Nc2n[nH]c(=S)s2)cc1C", "GI50": "> 100 µM (inactive)"}
{"compound": "Cc1cc2c(cc1Cl)SC(c1ccccc1)C(=O)NS2(=O)=O (centres undefined)", "GI50": "26.7 µM (inactive)"}
{"compound": "Cc1ccc(SC(=O)N2C(=S)N=C(NC3CCCCC3)C23CCCCC3)cc1", "GI50": "> 100 µM (inactive)"}
{"compound": "CCCCCC(O)C1C(=O)OC(C)C(O)/C=C/C=C/C=C/C=C\\C=C(\\C)C(O)CC(O)CC(O)CC(O)CC(O)CC(O)CC1O (centres undefined)", "GI50": "> 50 µM (inactive)"}
{"compound": "O=C1/C(=C\\c2ccc(Cl)cc2)N=C(c2ccccc2)N1n1c(=O)cn[nH]c1=S", "GI50": "> 100 µM (inactive)"}
{"compound": "CCOC(=O)NC", "GI50": "> 100 µM (inactive)"}
{"compound": "COc1ccc(-c2oc3ccc(C)cc3c(=O)c2O)cc1", "GI50": "43.4 µM (inactive)"}

###

- Tested on: 786-0
- test-description: NCI tumour cell line growth inhibition, 48 h
Activity calls are given as the source filed them. Cut-off read from the data, not from the text of the source: active = GI50 up to about 1.1 µM and inactive = higher.
Classes used: TRUE for active, FALSE for inactive

{"molecule": "COc1cc([C@@H]2c3cc4c(cc3[C@@H](/N=C/c3ccc(C(=O)O[C@@H](C(=O)O[C@H]5C[C@@]6(O)[C@@H](OC(=O)c7ccccc7)[C@@H]7[C@]8(OC(C)=O)CO[C@@H]8C[C@H](O)[C@@]7(C)C(=O)[C@H](OC(C)=O)C(=C5C)C6(C)C)[C@@H](NC(=O)c5ccccc5)c5ccccc5)cc3)[C@H]3COC(=O)[C@H]23)OCO4)cc(OC)c1O", "category-label": "TRUE"}
{"molecule": "NNC(=O)CSc1nc2ccc(I)cc2c(=O)n1Cc1ccccc1", "category-label": "FALSE"}
{"molecule": "COc1ccc(C2OCCN2C)cc1 (stereo unspecified)", "category-label": "FALSE"}
{"molecule": "CC(=O)c1sc2[n+](c1C)C(=O)/C(=C\\c1ccccc1Cl)S2", "category-label": "FALSE"}
{"molecule": "COC1/C=C/C(C)C(OC)CC(O)/C=C/C(C)C(C(C)C(OC)C(C)CCC(=O)C(C)C(C/C=C/N(C)C=O)OC)OC(=O)/C=C/C=C(\\C)CC(OC)C(OC)C2=CC(=O)O[C@@H](C(C)C(OC)C1)[C@H]2O (stereo partly specified)", "category-label": "TRUE"}
{"molecule": "COc1ccc(C(=O)C(C(=O)CC(=O)Nc2cccc(C(F)(F)F)c2)c2ccc(OC)cc2)cc1 (stereo unspecified)", "category-label": "FALSE"}

###

- Test system: MDA-MB-435
- test-description: NCI tumour cell line growth inhibition, 48 h
Active and inactive are the calls of the source. Cut-off read from the data, not from the text of the source: active = GI50 up to about 1.1 µM and inactive = higher. *1 amine or outer side, *2 acyl side, *3 side chain or, on linkers, in order; H or OH if unused. Where a SMILES comes first, the peptide text is derived from it. Bridges are numbered along the chain shown (N, C = ends). Roman numbers before positions name the chains, in order. [ ]: non-standard residue; d: D form. Actinocin(1to9) = Cc1c2oc3c(C)ccc(C(=O)[*:2])c3nc-2c(C(=O)[*:1])c(N)c1=O; NMeV = CN[CH](C(=O)O)C(C)C; Sar = CNCC(=O)O
Classes used: Yes = active, No = inactive

{"molecule": "CCOC(=O)c1c(N/C(S)=N/c2ccccc2)sc2c1CCOC2", "tested-system": "MDA-MB-435", "category-label": "No"}
{"molecule": "CC(=O)OC1(C)C(=O)OC/C2=C/CN(C)CCC(OC(=O)C(O)(C(C)Cl)CC1C)C2=O.c1ccccc1 (stereo not given)", "tested-system": "MDA-MB-435", "category-label": "No"}
{"molecule": "Cc1cn2c(/C=C3/C(=O)Nc4cccc(Cl)c43)c(Cl)nc2s1", "tested-system": "MDA-MB-435", "category-label": "No"}
{"molecule": "COc1cc([C@@H]2c3cc4c(cc3[C@@H](/N=C/c3ccc(C(=O)O[C@@H](C(=O)O[C@H]5C[C@@]6(O)[C@@H](OC(=O)c7ccccc7)[C@@H]7[C@]8(OC(C)=O)CO[C@@H]8C[C@H](O)[C@@]7(C)C(=O)[C@H](OC(C)=O)C(=C5C)C6(C)C)[C@@H](NC(=O)c5ccccc5)c5ccccc5)cc3)[C@H]3COC(=O)[C@H]23)OCO4)cc(OC)c1O", "tested-system": "MDA-MB-435", "category-label": "Yes"}
{"molecule": "COCCN(C(C)=O)C1CCC2(SCCS2)c2[nH]c3ccccc3c21 (stereo not given)", "tested-system": "MDA-MB-435", "category-label": "No"}
{"molecule": "O=C(Sc1c(-c2ccccc2)c(=O)n(-c2ccccc2)c(=S)n1-c1ccccc1)c1ccccc1", "tested-system": "MDA-MB-435", "category-label": "No"}
{"molecule": "Nc1ccc2c3c1cccc3c(=O)n1c3ccc(Cc4ccc5c(c4)nc4c6ccc(N)c7cccc(c(=O)n54)c76)cc3nc21", "tested-system": "MDA-MB-435", "category-label": "No"}
{"molecule": "CCC(C)C1NC(=O)C(NC(=O)c2c3nc4c(C(=O)NC5C(=O)NC(C(C)C)C(=O)N6CCCC6C(=O)N(C)CC(=O)N(C)C(C(C)C)C(=O)OC5C)ccc(C)c4oc-3c(C)c(=O)c2N)C(C)OC(=O)C(C(C)C)N(C)C(=O)CN(C)C(=O)C2CCCN2C1=O (stereo not given) (I: TIP[Sar][NMeV] / II: TVP[Sar][NMeV]; ester I:1-I:C, II:1-II:C; linker I:N-II:N via Actinocin(1to9); configuration not given here)", "tested-system": "MDA-MB-435", "category-label": "Yes"}
{"molecule": "O=C1/C(=C/c2ccccc2)NC(=S)N1CN1CCCCC1", "tested-system": "MDA-MB-435", "category-label": "No"}
{"molecule": "c1cc(CSP234N5CCN2CCN3CCN4CC5)ccc1CSP123N4CCN1CCN2CCN3CC4", "tested-system": "MDA-MB-435", "category-label": "No"}
{"molecule": "N=C(N)/N=C(\\N)Nc1cnccn1", "tested-system": "MDA-MB-435", "category-label": "No"}
{"molecule": "[N-]=[N+]=Nc1ccc2c(c1)Sc1ccccc1N2CCCCN1CCN(Cc2ccc(C(=O)c3ccccc3)cc2)CC1", "tested-system": "MDA-MB-435", "category-label": "No"}
{"molecule": "CC(=O)c1sc2[n+](c1C)C(=O)/C(=C\\c1ccccc1Cl)S2", "tested-system": "MDA-MB-435", "category-label": "No"}
{"molecule": "C[C@]12CC[C@@H]3c4ccc(OC(=O)c5ccccc5)cc4CC[C@H]3[C@@H]1CC[C@@H]2Oc1c2ccccc2nc2ccccc12", "tested-system": "MDA-MB-435", "category-label": "No"}
{"molecule": "CN(C)CCCC1c2ccccc2Oc2ccc(C(F)(F)F)cc21 (stereo not given)", "tested-system": "MDA-MB-435", "category-label": "No"}
